Target: hamster galectin-1 mutant V5D-Gal-1 (Val-5 to Asp), SEQ ID NO:3 (Cricetulus griseus, UniProt P48538, V6D)
Construct: made in house; host or cells: E. coli
Sequence (P48538 whole entry V6D): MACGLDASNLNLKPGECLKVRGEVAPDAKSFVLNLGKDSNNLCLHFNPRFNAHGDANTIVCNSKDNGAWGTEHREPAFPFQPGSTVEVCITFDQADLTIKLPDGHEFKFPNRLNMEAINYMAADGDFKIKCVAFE
Experiment: Equilibrium dialysis binding of N-acetyllactosamine
Metric: Kd

INPUT: Which Kd reading was recorded for the compound CC(=O)N[C@H]1C(O)O[C@H](CO)[C@@H](O[C@@H]2O[C@H](CO)[C@H](O)[C@H](O)[C@H]2O)[C@@H]1O (stereo partly shown) ?
OUTPUT: ~90 µM

----------
Molecular target: hamster galectin-1 mutant N-Gal-1 (monomeric; three hydrophobic N-terminal amino acids disrupted), SEQ ID NO:4 (Cricetulus griseus, UniProt P48538, A7S/C3S/L5Q/V6D)
Sequence (P48538 2-135 C3S/L5Q/V6D/A7S limits assumed): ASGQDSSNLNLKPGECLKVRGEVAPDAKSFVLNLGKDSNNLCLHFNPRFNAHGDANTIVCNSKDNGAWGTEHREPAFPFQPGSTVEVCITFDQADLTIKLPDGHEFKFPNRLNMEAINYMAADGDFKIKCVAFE
Test: Equilibrium dialysis binding of N-acetyllactosamine
pKd: −log10 of the molar value.
Metric: pKd

INPUT: Which pKd reading was recorded for the compound CC(=O)N[C@H]1C(O)O[C@H](CO)[C@@H](O[C@@H]2O[C@H](CO)[C@H](O)[C@H](O)[C@H]2O)[C@@H]1O (stereo partly shown) ?
OUTPUT: ~4.05

----------
Target: hamster galectin-1, native lectin (N-terminus SEQ ID NO:1) (Cricetulus griseus, UniProt P48538)
Sequence (P48538 2-135): as the sequence (P48538 2-135 C3S/L5Q/V6D/A7S limits assumed) above, with S2C, Q4L, D5V, S6A counted along it
Experiment: Equilibrium dialysis binding of N-acetyllactosamine
Details: stated only as similar affinity to the monomeric mutants
Metric: Kd

INPUT: Which Kd reading was recorded for the compound CC(=O)N[C@H]1C(O)O[C@H](CO)[C@@H](O[C@@H]2O[C@H](CO)[C@H](O)[C@H](O)[C@H]2O)[C@@H]1O (stereo partly shown) ?
OUTPUT: ~90 µM
